Collected Relative bonding affinity (RBA), Glucocorticoid, 24 H values appear next to each entry.
- Experimental Target: Glucocorticoid receptor of the rat thymus (Rattus norvegicus, UniProt P06536)
- Construct: the thymus is removed and homogenized at 0° C. in a buffer; from tissue; host or cells: thymus of adrenalectomized male Sprague-Dawley rats, 105,000 g supernatant (cytosol)
- Sequence (P06536 whole entry): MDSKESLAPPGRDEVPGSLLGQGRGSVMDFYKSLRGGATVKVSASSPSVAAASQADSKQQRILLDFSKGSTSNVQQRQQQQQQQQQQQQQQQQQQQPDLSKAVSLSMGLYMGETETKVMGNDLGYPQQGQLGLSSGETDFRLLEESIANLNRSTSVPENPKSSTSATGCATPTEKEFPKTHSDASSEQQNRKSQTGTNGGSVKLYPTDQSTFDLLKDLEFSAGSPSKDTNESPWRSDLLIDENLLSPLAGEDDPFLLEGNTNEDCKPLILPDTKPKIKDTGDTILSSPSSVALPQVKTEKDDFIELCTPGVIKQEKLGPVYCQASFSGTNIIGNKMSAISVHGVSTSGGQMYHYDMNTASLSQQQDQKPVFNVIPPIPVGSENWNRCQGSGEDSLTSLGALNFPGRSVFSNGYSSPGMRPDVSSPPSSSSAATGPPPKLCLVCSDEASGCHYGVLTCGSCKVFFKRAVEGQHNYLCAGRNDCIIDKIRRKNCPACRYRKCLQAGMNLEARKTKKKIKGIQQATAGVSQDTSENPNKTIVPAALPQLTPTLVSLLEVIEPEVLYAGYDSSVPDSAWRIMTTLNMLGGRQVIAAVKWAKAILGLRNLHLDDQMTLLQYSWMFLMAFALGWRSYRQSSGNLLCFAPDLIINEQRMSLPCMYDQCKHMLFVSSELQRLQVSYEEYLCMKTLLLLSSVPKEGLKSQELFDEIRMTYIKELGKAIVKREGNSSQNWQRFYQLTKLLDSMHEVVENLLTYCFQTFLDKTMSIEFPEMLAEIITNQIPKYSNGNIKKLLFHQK
- Method Summary: Glucocorticoid receptor of the rat thymus, relative bonding affinity (RBA)
- Format: binding, rat (Sprague-Dawley)
- Test Parameters: incubation 24 H at 0° C.; versus cold dexamethasone, tritiated dexamethasone
Reported Endpoint: Relative bonding affinity (RBA), Glucocorticoid, 24 H

1) CN(C)c1ccc(C2CC3(C)C(CCC34CCCO4)C3CCC4=CC(=O)CCC4=C23)cc1 (stereo not shown); 48
2) CSc1ccc(C2CC3(C)C(CCC34CCCO4)C3CCC4=CC(=O)CCC4=C23)cc1 (stereo not shown); 39
3) CN(C)c1ccc(C2CC3(C)C(CCC34C=CCO4)C3CCC4=CC(=O)CCC4=C23)cc1 (stereo not shown); 96
4) CSc1ccc(C2CC3(C)C(CCC34C=CCO4)C3CCC4=CC(=O)CCC4=C23)cc1 (stereo not shown); 41

Every entry's value here was drawn from patent US4900725A.
